- TARGET UNDER TEST: Luciferin 4-monooxygenase (Photinus pyralis)
- PROCEDURE TEXT: Firefly luciferase inhibition profiling of diverse chemical library using quantitative high-throughput screening; note: nearly all actives have a fitted effect of over 65% in size
- REPORTED CONDITIONS: purified P. pyralis luciferase, luminescence, biochemical; series mostly up to 115 µM
Hit rate of the full screen: of about 76,000 compounds, about 1,900 (2.5%) were called active. Inconclusive results (about 5%) are left out. Calls come from the whole dose curve; as a rule, active = well fitted inhibition curve with a large enough effect; inconclusive = small, poorly fitted or top-dose-only effect; inactive = flat fitted curve, though single readings scatter. The sample holds actives, similar compounds and a random draw of the others, so the mix is not that of the screen.
Use one of these outcomes when replying: true = active, false = inactive

Examples from the recorded data:
COc1ccc(C(=O)NCCC2CCN(C(=O)Nc3cc(F)ccc3F)CC2)cc1 | true
Cn1cccc1CN1CCC(N2CCC[S+]2(=O)[O-])CC1 | false
CCOc1ccccc1-c1noc(-c2nnn3c2COC(c2ccc(Cl)cc2)C3)n1 (stereo unspecified) | false
COc1ccccc1Nc1cnc2ccc(-c3ccc(OC)c(OC)c3)nn12 | false
CCCN1C(=O)Cc2cc(C(=O)NC3CC3)ccc21 | false
OC1(CN2CCCCC2)CCN(c2nc3ccccc3s2)C1 (stereo unspecified) | true

Enquiry: Could you please tell me the result logged for `COc1ccccc1-c1cn(C)c(=O)n2cc(COc3ccc(C(=O)O)cc3)nc12` in this assay?
Return: false

Enquiry: Could you please tell me the result logged for `COc1cc(F)ccc1-c1ccnc2nc(C(C)C)nn12` in this assay?
Return: false

Enquiry: Could you please tell me the result logged for CCN1c2cc(C(=O)NC3CCN(Cc4ccccc4)CC3)ccc2C(=O)N2CCCCC21 (stereo unspecified) in this assay?
Return: false

Enquiry: Could you please tell me the result logged for `COC(=O)c1ccccc1NC(=O)Cn1nc2n(c1=O)CCCCC2` in this assay?
Return: false

Enquiry: Could you please tell me the result logged for `COc1cc(F)ccc1-c1ccc(COc2ccc3c(cnn3CCC(=O)O)c2)cc1` in this assay?
Return: true

====

- TARGET UNDER TEST: Luciferin 4-monooxygenase (Photinus pyralis) (UniProt P08659)
- Sequence (P08659 whole entry, looked up): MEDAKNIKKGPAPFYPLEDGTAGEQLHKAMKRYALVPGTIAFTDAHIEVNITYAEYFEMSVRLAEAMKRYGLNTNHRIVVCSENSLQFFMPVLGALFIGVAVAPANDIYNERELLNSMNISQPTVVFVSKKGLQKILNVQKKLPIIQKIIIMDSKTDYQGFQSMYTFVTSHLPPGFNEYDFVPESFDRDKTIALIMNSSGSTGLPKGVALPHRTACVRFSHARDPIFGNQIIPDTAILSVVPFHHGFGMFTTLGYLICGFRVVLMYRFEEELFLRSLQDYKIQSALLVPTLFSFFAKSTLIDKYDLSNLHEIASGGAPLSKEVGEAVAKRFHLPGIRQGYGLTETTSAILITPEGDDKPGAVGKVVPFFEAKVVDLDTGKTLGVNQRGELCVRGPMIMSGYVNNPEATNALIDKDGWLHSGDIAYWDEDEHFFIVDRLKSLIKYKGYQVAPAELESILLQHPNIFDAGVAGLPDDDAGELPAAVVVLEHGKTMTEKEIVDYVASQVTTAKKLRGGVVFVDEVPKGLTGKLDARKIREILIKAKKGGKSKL
- PROCEDURE TEXT: Firefly luciferase inhibition profiling of diverse chemical library using quantitative high-throughput screening; note: nearly all actives have a fitted effect of over 65% in size
- REPORTED CONDITIONS: purified P. pyralis luciferase, luminescence, biochemical; series mostly up to 115 µM
The campaign covered roughly 76,000 compounds. About 1,900 (2.5%) were called active. About 5% were inconclusive and are not listed. Calls follow the shape of the dose curve; as a rule, active = well fitted inhibition curve with a large enough effect; inconclusive = small, poorly fitted or top-dose-only effect; inactive = flat fitted curve, though single readings scatter. Only a selection was taken, and actives are over-represented in it overall.
Use one of these outcomes when replying: T (active), F (inactive)

Examples from the recorded data:
O=C(CC1CCCC1)N1CCOc2ccc(CN3CCc4ccccc4C3)cc2C1 | F
O=C(NCc1ccnc2[nH]ccc12)c1ccccn1 | T
CCCn1c(C)cnc1CC1CCN(C(=O)CCOC)CC1 | F
CCCNc1cc(N2CCC(CCC(=O)Nc3ccc(C)cc3)CC2)ncn1 | T
CC(=O)N1CCC(C(=O)NCC2CCN(c3cc(-c4ccc(C)cc4)[nH]n3)CC2)CC1 | F

Enquiry: Could you please tell me the result logged for `O=C(Nc1ccc(F)cc1)[C@@H]1C[C@@H](c2ccc(F)cc2)N([S+](=O)([O-])c2ccccc2)C1` in this assay?
Return: F

Enquiry: Could you please tell me the result logged for COc1ccc(C2Cn3cnc(C(=O)N4CCC(C(=O)NCc5cccc(F)c5)CC4)c3CO2)cc1 (stereo not drawn) in this assay?
Return: F

Enquiry: Could you please tell me the result logged for O=C(C1CC1)N1CCCC(c2noc(COc3ccccc3F)n2)C1 (stereo not drawn) in this assay?
Return: T

Enquiry: Could you please tell me the result logged for CCn1nccc1C(=O)N1CCCC1c1cc(C)no1 (stereo not drawn) in this assay?
Return: F

Enquiry: Could you please tell me the result logged for `COc1ccc(CNC(=O)C[C@@H]2CCNC[C@@H]2Cc2cc(-c3ccc(C(C)(C)C)cc3)on2)cc1OC` in this assay?
Return: F

Enquiry: Could you please tell me the result logged for `COc1ccc(-c2noc([C@@H]3CCCN3C(=O)CCCc3ccccc3)n2)cc1OC` in this assay?
Return: F

Enquiry: Could you please tell me the result logged for `O=C(O)[C@@H]1CN(C(=O)NC2CCCC2)C[C@H]1c1ccccn1` in this assay?
Return: F
